Biological target: human ether-à-go-go-related gene (hERG) potassium channel (human)
Test: primary screen, population patch clamp on CHO cells stably expressing hERG; higher = less effect of the substance
Method: Briefly, Chinese hamster ovary (CHO) cells stably expressing the hERG channel were dislodged from tissue culture flasks and dispensed into PPC plates. […] During the recording, background leak currents were estimated by a 100 ms step to -80 mV from an initial holding potential of -70 mV and subtracted from the subsequent current measurement. The campaign was conducted in two phases using slight differences in recording protocol. […]
Hit rate of the full screen: of about 310,000 compounds, about 14,000 (4.5%) showed an effect of 50% or more. The effect is printed as a negative number. Shown is part of a subset that was picked to be rich in strong results.
Parameter threshold = -40%. Response is class 1 when hERG current change (%, negative = inhibition) at 10uM meets or exceeds it, else class 0.

Compound	Label
COc1cc(C2NCC(c3ccc(Cl)cc3Cl)c3c2[nH]c2ccccc32)cc(OC)c1OC.Cl (stereo not shown)	class 1
CCOC(=O)N1CCN(C(=O)/C(=C/c2ccc(N(C)C)cc2)NC(=O)c2ccccc2)CC1	class 0
CCOc1cc(CNCCc2ccc(S(N)(=O)=O)cc2)ccc1OCC(=O)NC1CCCCC1.Cl	class 1
O=C(N/C(=C/c1ccc(Cl)cc1)C(=O)N1CCCC1)c1ccccc1	class 1
CCOC(=O)N1CCN(C(=O)/C(=C/c2ccc(Cl)cc2)NC(=O)c2ccccc2)CC1	class 0

Does hERG current change (%, negative = inhibition) at 10uM meet or surpass -40% for COc1cc(NC(=O)[C@@H](NC(=O)c2ccco2)C(C)C)c(OC)cc1NC(=O)c1ccccc1 ? class 1

Does hERG current change (%, negative = inhibition) at 10uM meet or surpass -40% for COc1ccc(/C=C(\NC(=O)c2ccccc2)C(=O)N2CCN(C)CC2)cc1 ? class 0

Does hERG current change (%, negative = inhibition) at 10uM meet or surpass -40% for Cn1cc(P(=S)(N2CCOCC2)N2CCOCC2)cc1P(=O)(N1CCOCC1)N1CCOCC1 ? class 1

Does hERG current change (%, negative = inhibition) at 10uM meet or surpass -40% for O=C(Cn1ncc2c([nH]c3ccccc32)c1=O)NCCCN1CCN(c2ccccc2)CC1 ? class 1

Does hERG current change (%, negative = inhibition) at 10uM meet or surpass -40% for Cc1ccccc1CS(=O)(=O)CCC(=O)NCCCN1CCOCC1 ? class 1

Does hERG current change (%, negative = inhibition) at 10uM meet or surpass -40% for COc1cc(CNCCc2ccccc2)cc(Cl)c1OCc1ccccc1.Cl ? class 1

Does hERG current change (%, negative = inhibition) at 10uM meet or surpass -40% for CCCCOc1ccc(C(=O)N(CC)CC(=O)NCc2cccs2)cc1 ? class 1

Does hERG current change (%, negative = inhibition) at 10uM meet or surpass -40% for CCOc1cc(CNCCc2ccc(S(N)(=O)=O)cc2)ccc1OCc1ccc(Cl)cc1.Cl ? class 1

Does hERG current change (%, negative = inhibition) at 10uM meet or surpass -40% for CCN(CC(=O)NCc1cccs1)C(=O)CCCOc1ccccc1 ? class 1

Does hERG current change (%, negative = inhibition) at 10uM meet or surpass -40% for CC1CCN(CCCNC(=O)Cn2ncc3c([nH]c4ccccc43)c2=O)CC1 ? class 1

Does hERG current change (%, negative = inhibition) at 10uM meet or surpass -40% for COc1ccc(N2CCN(C(=O)c3cccn4c(=O)c5ccccc5nc34)CC2)cc1 ? class 0

Does hERG current change (%, negative = inhibition) at 10uM meet or surpass -40% for CCN(CC(=O)Nc1c(F)cccc1F)C(=O)CCCNC(=O)c1ccc(Cl)cc1 ? class 1

Does hERG current change (%, negative = inhibition) at 10uM meet or surpass -40% for CCOc1ccc(OCCC(=O)N(CC)CC(=O)NCc2ccc(Cl)cc2)cc1 ? class 0

----------
biological target: human ether-à-go-go-related gene (hERG) potassium channel (human); assay: primary screen, population patch clamp on CHO cells stably expressing hERG; higher = less effect of the substance;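 note: peak tail current of the secondary pulse compared with the same well before compound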
Screen size: about 310,000 compounds; about 14,000 (4.5%) showed an effect of 50% or more. Effects have a minus sign here. For the sample, strong results were picked, then their nearest neighbours and some compounds at random.
Parameter threshold = -10%. Response is 1 when hERG current change (%, negative = inhibition) at 10uM meets or exceeds it, else -1.

Please review the entries below; each comes with its answer.
Molecule	Label
O=S(=O)(c1ccc(Cl)cc1)c1nc(-c2ccccc2F)oc1NCCN1CCOCC1	-1
Cc1ccc(S(=O)(=O)c2nc(-c3ccccc3)oc2NCCN2CCOCC2)cc1	1
O=S(=O)(c1ccc(Cl)cc1)c1nc(-c2ccccc2F)oc1NCCCN1CCOCC1	-1
Cc1ccc(NC(=O)CN(C)C(=S)NC2CC2)cc1	1
CN(C)C1=NC[C@H](Cc2ccccc2)N1CC1CCCCCC1	-1

Does hERG current change (%, negative = inhibition) at 10uM meet or surpass -10% for Cc1cnc(C(=O)OC(C)C(=O)NCc2ccccc2)cn1 (stereo not shown) ? 1

Does hERG current change (%, negative = inhibition) at 10uM meet or surpass -10% for CN(C)C1=NC[C@H](Cc2ccccc2)N1CCCC1CCCCC1 ? -1

Does hERG current change (%, negative = inhibition) at 10uM meet or surpass -10% for Cc1cccc(-c2nc(S(=O)(=O)c3ccc(F)cc3)c(NCCCN3CCOCC3)o2)c1 ? -1

Does hERG current change (%, negative = inhibition) at 10uM meet or surpass -10% for CN(C)C1=NC[C@H](Cc2ccccc2)N1CCC1CCCC1 ? -1

Does hERG current change (%, negative = inhibition) at 10uM meet or surpass -10% for CC(C)CC(NC(N)=O)C(=O)NCCc1ccc(Cl)cc1Cl (stereo not shown) ? 1

----------
target: human ether-à-go-go-related gene (hERG) potassium channel (human); assay: primary screen, population patch clamp on CHO cells stably expressing hERG; higher = less effect of the substance;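 note: peak tail current of the secondary pulse compared with the same well before compound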
Screen size: about 310,000 compounds; about 14,000 (4.5%) showed an effect of 50% or more. The effect is printed as a negative number. What follows is part of a selection rich in strong results, with near analogues and random picks from the rest.
Reported hERG current change (%, negative = inhibition) at 10uM values for a set of molecules
Numeric only. Scale: %

Item smiles	Quantitative result
O=c1c(C=NCc2cccs2)c(O)n(C2CCCCC2)c(=O)n1C1CCCCC1	8.72
Cc1c(CN2CCC(n3nccc3NC(=O)CCc3ccccc3)CC2)cnn1C	12.6
CC(C)(/C=N/O)/[N+]([O-])=C/c1ccccc1	20.1
CCCn1ncc(CN2CCC(n3nccc3NC(=O)c3ccccc3OC)CC2)c1C	-79.2

# next molecule below
Quick one: hERG current change (%, negative = inhibition) at 10uM for Cc1ccn2cc(-c3cccc(NC(=O)c4cccs4)c3)nc2c1 ? -48.7

----------
target: human ether-à-go-go-related gene (hERG) potassium channel (human, UniProt Q12809); assay: primary screen, population patch clamp on CHO cells stably expressing hERG; higher = less effect of the substance;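 note: peak tail current of the secondary pulse compared with the same well before compound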
Sequence (Q12809 whole entry, looked up): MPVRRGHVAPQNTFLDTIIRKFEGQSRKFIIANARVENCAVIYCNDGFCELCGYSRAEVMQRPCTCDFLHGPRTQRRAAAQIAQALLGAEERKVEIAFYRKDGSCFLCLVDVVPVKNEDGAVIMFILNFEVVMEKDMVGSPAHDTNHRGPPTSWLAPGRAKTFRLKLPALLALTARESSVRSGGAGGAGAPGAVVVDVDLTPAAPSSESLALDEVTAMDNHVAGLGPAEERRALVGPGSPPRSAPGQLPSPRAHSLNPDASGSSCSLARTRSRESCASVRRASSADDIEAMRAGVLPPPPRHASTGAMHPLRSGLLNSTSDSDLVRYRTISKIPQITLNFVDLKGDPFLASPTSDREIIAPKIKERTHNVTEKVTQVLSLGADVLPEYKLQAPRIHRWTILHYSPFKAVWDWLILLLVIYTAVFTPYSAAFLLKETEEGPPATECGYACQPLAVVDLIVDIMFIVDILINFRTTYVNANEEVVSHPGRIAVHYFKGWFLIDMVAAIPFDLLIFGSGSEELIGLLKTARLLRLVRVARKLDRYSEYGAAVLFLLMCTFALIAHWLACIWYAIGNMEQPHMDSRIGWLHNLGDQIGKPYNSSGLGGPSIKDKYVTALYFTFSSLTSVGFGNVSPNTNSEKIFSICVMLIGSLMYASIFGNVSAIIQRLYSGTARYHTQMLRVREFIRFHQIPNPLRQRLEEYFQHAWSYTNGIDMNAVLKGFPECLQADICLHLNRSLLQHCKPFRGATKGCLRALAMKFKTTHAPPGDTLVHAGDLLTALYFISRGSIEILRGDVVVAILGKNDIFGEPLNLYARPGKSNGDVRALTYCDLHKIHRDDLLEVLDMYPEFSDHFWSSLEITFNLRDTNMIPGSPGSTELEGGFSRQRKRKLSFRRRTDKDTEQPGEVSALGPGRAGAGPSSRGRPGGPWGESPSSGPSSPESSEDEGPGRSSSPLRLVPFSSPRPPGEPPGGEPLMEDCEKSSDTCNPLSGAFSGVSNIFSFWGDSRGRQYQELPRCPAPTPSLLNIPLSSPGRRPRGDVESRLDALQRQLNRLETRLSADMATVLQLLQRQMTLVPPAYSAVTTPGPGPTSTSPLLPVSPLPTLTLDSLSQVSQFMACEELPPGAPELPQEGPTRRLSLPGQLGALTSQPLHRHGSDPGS
In all, about 310,000 compounds went through this assay and about 14,000 (4.5%) showed an effect of 50% or more. The effect is printed as a negative number. The sample as a whole holds a higher share of strong results than the screen did.
Reported endpoint: hERG current change (%, negative = inhibition) at 10uM (%)
Numeric only. Scale: %

Solved entries (count: 4):
Compound	Units	Quantitative result
Cc1ccc(NS(=O)(=O)c2ccc(CCC(=O)NCCCOC(C)C)cc2)cc1	%	4.27
O=C(c1cnn2c(C(F)F)cc(-c3ccccc3)nc12)N1CCCc2ccccc21	%	-3.45
O=C(Nc1cc2c(oc1=O)CCCC2=O)c1cccc(Cl)c1	%	4.61
Cc1c(Cl)cccc1NC(=O)CSc1sc2c(O)cc(=O)[nH]c2c1C#N	%	-2.45

Quick one: hERG current change (%, negative = inhibition) at 10uM for COc1ccc(C(=O)c2c[nH]c(C(=O)NCCCn3ccnc3)c2)cc1 ? 0.775

Quick one: hERG current change (%, negative = inhibition) at 10uM for COc1cccc(C(=O)OCn2nnc3ccccc3c2=O)c1 ? 0.671

Quick one: hERG current change (%, negative = inhibition) at 10uM for O=C(c1ccc(C(F)(F)F)cc1)c1c[nH]c(C(=O)NCCCn2ccnc2)c1 ? -70.4

Quick one: hERG current change (%, negative = inhibition) at 10uM for COCCN(C(=O)Cc1cccs1)C(C(=O)NC1CCCC1)c1cc(OC)c(OC)c(OC)c1 (stereo not shown) ? 8.79

Quick one: hERG current change (%, negative = inhibition) at 10uM for CCC(=O)c1c[nH]c(C(=O)NCCCn2ccnc2)c1 ? 9.18

Quick one: hERG current change (%, negative = inhibition) at 10uM for COc1cc(/C=N/O)ccc1OCc1ccc([N+](=O)[O-])cc1 ? -23.5

----------
Reported hERG current change (%, negative = inhibition) at 10uM values for a set of compounds
molecular target: human ether-à-go-go-related gene (hERG) potassium channel (human); test: primary screen, population patch clamp on CHO cells stably expressing hERG; higher = less effect of the substance;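 note: peak tail current of the secondary pulse compared with the same well before compound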
About 14,000 (4.5%) of roughly 310,000 compounds showed an effect of 50% or more. The effect is printed as a negative number. Only a selection was taken, and strong results are over-represented in it overall.
Numeric only. Scale: %

Item smiles	Quantitative result
O=C(CN1CCN(C(=O)N2CCCCC2)CC1)Nc1ccc(F)cc1	-74.9
Cc1cccc(Nc2nc3c(s2)CCCC3)c1	-8.11
Cc1csc(C2=C(O)CN(CCc3ccccc3)C2=N)n1	1.95
CCn1nc(C)c(CNCc2cn[nH]c2-c2cc3ccccc3o2)c1C	-19
Cc1nc(Nc2ccccc2)sc1-c1ccccc1	1.73

Quick one: hERG current change (%, negative = inhibition) at 10uM for CCOC(=O)c1c(NC(=O)C2CCCCC2)sc2c1CCN(CC)C2.Cl ? -51.7

Quick one: hERG current change (%, negative = inhibition) at 10uM for COc1ccc(Nc2nc(C)c(-c3ccccc3)s2)cc1 ? 14.9

Quick one: hERG current change (%, negative = inhibition) at 10uM for O=C(O)c1ccc(Nc2nc3c(s2)CCCC3)cc1 ? -81.3
